B1: library; numbered along this chain (parent)
chain: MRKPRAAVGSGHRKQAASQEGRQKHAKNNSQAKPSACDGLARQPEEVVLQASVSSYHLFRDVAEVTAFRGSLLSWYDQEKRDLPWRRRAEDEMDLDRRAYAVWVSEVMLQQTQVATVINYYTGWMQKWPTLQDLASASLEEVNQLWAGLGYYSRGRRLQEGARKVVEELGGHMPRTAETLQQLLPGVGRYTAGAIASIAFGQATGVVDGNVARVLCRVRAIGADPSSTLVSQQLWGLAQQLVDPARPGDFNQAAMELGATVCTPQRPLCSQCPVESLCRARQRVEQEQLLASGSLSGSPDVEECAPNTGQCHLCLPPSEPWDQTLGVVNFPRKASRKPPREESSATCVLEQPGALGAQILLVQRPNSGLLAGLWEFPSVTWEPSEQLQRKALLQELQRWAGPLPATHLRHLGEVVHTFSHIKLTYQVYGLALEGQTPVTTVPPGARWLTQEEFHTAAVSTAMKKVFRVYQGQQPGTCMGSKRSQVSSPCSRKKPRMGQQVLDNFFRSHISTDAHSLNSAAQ

variants of: B1; assay: 8OG:A repair function score (normalized; synonymous = 0, nonsense = -1) (normalized log-likelihood score); higher = more repair activity (WT-like); conditions: with 8OG:A DNA repair reporter (GFP) in HEK-293 MUTYH KO cells;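 note: cells sorted at 72 h after reporter transfection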
The reader will find reported 8OG:A repair function score values listed item by item below.
The answer should be a number; do not append a unit.

# example entries with known answers
# input Given the variant "V284F" , what is its reported 8OG:A repair function score?
# output -0.00936

# input Given the variant "L369Y" , what is its reported 8OG:A repair function score?
# output 0.153

---
# input Given the variant "E382F" , what is its reported 8OG:A repair function score?
# output 0.0805

# input Given the variant "Y190F" , what is its reported 8OG:A repair function score?
# output -0.574

# input Given the variant "W399I" , what is its reported 8OG:A repair function score?
# output -0.15

# input Given the variant "G475P" , what is its reported 8OG:A repair function score?
# output -0.00826

# input Given the variant "T417F" , what is its reported 8OG:A repair function score?
# output 0.0432

# input Given the variant "L360A" , what is its reported 8OG:A repair function score?
# output -0.845
